- Procedure Summary: Inhibition of retinal rod CNGA1/CNGB1 expressed in Xenopus laevis oocytes assessed as blockade of cGMP-induced current at +50 mV holding potential by patch-clamp electrophysiology
- Type: cell-based
- Condition Info: oocyte; read-out: Kd(app)
Reported log10 Kd values follow for various compounds
Experimental Endpoint: log10 Kd (log10 of the value in nM)

molecule=CCCCCCCCNc1ccc(C(=O)OCCN(C)C)cc1Cl quantitative_readout=2.15
molecule=CCCCNc1ccc(C(=O)OCCN(C)C)cc1OC quantitative_readout=3.63
molecule=CCCCCCCCNc1ccc(C(=O)OCCN(C)C)cc1OC quantitative_readout=3.10
molecule=CCCCCCCCNc1ccc(C(=O)OCCN(C)C)cc1C quantitative_readout=2.70
molecule=CCCCNc1ccc(C(=O)OCCN(C)C)cc1Cl quantitative_readout=3.48
molecule=CCCCCCCCNc1ccc(C(=O)OCCN(C)C)c(Cl)c1 quantitative_readout=2.00
molecule=CCCCNc1ccc(C(=O)OCCN(C)C)cc1[N+](=O)[O-] quantitative_readout=3.74
molecule=CCCCCCCCNc1ccc(C(=O)OCCN(C)C)cc1Br quantitative_readout=2.15
molecule=CCCCNc1ccc(C(=O)OCCN(C)C)cc1C quantitative_readout=3.89
molecule=CCCCCCCCNc1ccc(C(=O)OCCN(C)C)cc1[N+](=O)[O-] quantitative_readout=3.90
molecule=CCCCCCCCNc1ccc(C(=O)OCCN(C)C)cc1F quantitative_readout=2.30
molecule=CCCCCCCCNc1ccc(C(=O)OCCN(C)C)cc1 quantitative_readout=2.90
